assay: amyloid nucleation score (Sup35N fusion, yeast selection) (log enrichment); library NNK3; higher = more nucleation; inactive = no reads after selection;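 further: zero at mode of non-aggregating sequences after 7 days selection at 30°C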
assay_readout: amyloid nucleation score

Worked cases, answers included:
GLFRRVRGIRT	inactive
VDFYAQ	inactive
DFKDCDICTTPNDKVESGKV	inactive
LFLWKTTMTPGLHRSSVVGR	inactive
IVFFYAEIGYSPSQCRRRVA	inactive

*Q* Name the recorded amyloid nucleation score of the item `LSFRTQALFYFVMLYGIWRA` in your answer.
*A* inactive

*Q* Look up amyloid nucleation score of `RSNTPPGISLARPFYPKNRV` and report it.
*A* inactive

*Q* Consider the substance `PWDQDGGSTYSKGGPSNWEF` and give its recorded amyloid nucleation score.
*A* inactive

*Q* Note amyloid nucleation score for the substance shown: `HPLDYTVGSVVMGV`
*A* inactive

*Q* Give reported amyloid nucleation score value for `WYSYPNFG`
*A* inactive

###

assay: amyloid nucleation score (Sup35N fusion, yeast selection) (log enrichment); library NNK2; higher = more nucleation; inactive = no reads after selection
assay_readout: amyloid nucleation score

ITCIAGWSNLNDYVFYTVAS	inactive
SYPFYVFSSNASSTAVIKLT	1.07
VSYKWNGEWVRAPFDLQGCI	-0.464
LVSMAIECHLLYLLE	0.931
GEDCWRPPVR	0.559
LKVGVIDNI	-1.2

// switching to the query substance
*Q* Report measured amyloid nucleation score; entry is `WLMKINRT`
*A* 0.129

###

assay: amyloid nucleation score (Sup35N fusion, yeast selection) (log enrichment); library NNK3; higher = more nucleation; inactive = no reads after selection
Listed here: items and their measured amyloid nucleation score.
Hey, just send me the number, nothing else.

DRSDNRSGYFMINVVYNDGE	0.724

*Q* State its amyloid nucleation score: `LYKSNPLFPCQFCLISGKFC`
*A* 0.868

###

# reported amyloid nucleation score; entries follow
assay: amyloid nucleation score (Sup35N fusion, yeast selection) (log enrichment); library NNK2; higher = more nucleation; inactive = no reads after selection
A bare number is all that is needed in reply.

MCFSIRPPGVMRVMHLTLVW	0.135
WVDGICCPPRSG	0.292
FFIWKVLDWHLNSRSYRWFG	-0.325

*Q* Kindly indicate its recorded amyloid nucleation score. Item: `LSGDNCPRV`
*A* -0.342

*Q* Tell me measured amyloid nucleation score for `FWLLSTCGV` please.
*A* -0.408

*Q* Give the reported value of amyloid nucleation score for this record: `NFWMVPLIA`
*A* -0.541

*Q* Return reported amyloid nucleation score. Input substance: `WMIIVA`
*A* 0.582

*Q* Output measured amyloid nucleation score for this item: `RRDSVKCVSARGRISLLVSR`
*A* 2.8

*Q* Look up amyloid nucleation score of `LYPRPPYSRWIIANHSNWGS` and report it.
*A* 0.218

*Q* For the substance `WNLRMYLNMGYMVLFNIQF` , report amyloid nucleation score.
*A* 3.64

*Q* Give me measured amyloid nucleation score, please, for this substance: `LRCHDGVKLSKSVCECCMYM`
*A* 2.37

*Q* Please supply the value of reported amyloid nucleation score for the item `GVCFSFVFM`
*A* 8.49

*Q* Please report the measured amyloid nucleation score for `YVLFLVRWRVNRV`
*A* 2.19

*Q* Return amyloid nucleation score (reported value) for this substance: `ILSLEDLSLVRYGAIDS`
*A* -0.483

*Q* Read off the recorded amyloid nucleation score for `NCASWLYGSCACVGLLDLFE`
*A* -0.626

*Q* # return recorded amyloid nucleation score for input `LSAVWLWVNFFQHMTNRC`
*A* -1.71

// data source = the supplement of paper PMC12042874
